# TARGET_ENTITY: Rat recombinant TRPM8 (Rattus norvegicus)
# Construct: expressed in transfected cells; host or cells: HEK293 (TRPM8-HEK-293, gift from Mario van der Stelt)
# Sequence (Q8R455 whole entry): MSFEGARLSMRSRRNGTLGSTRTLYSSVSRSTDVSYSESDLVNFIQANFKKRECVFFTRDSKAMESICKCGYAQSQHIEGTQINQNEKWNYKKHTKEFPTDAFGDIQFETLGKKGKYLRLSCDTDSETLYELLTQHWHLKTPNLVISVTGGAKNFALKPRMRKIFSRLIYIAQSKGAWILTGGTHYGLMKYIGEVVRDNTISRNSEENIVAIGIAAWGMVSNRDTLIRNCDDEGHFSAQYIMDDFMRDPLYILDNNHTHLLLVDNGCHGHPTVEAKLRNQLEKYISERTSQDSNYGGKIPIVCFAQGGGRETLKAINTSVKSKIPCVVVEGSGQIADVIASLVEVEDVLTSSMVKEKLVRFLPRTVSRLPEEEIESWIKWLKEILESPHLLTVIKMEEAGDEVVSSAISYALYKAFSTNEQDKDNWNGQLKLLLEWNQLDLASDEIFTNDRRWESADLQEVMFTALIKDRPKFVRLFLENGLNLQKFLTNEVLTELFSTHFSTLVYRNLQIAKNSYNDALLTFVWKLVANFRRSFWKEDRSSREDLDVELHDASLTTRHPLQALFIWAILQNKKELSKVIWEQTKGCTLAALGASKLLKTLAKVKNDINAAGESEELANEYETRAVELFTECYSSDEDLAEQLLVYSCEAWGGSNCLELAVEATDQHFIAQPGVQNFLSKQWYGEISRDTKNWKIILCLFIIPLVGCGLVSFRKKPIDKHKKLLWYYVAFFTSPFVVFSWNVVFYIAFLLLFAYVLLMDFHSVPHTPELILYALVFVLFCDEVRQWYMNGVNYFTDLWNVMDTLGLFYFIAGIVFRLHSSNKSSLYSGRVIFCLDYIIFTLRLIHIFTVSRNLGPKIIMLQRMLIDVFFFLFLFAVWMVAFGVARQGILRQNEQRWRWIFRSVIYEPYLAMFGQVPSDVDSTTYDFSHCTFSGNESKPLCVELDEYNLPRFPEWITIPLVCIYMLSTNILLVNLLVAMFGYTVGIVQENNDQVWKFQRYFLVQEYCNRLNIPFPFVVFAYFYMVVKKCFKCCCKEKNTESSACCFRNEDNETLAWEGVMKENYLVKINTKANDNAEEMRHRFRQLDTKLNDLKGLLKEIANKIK
# ASSAY_COMMENT: TRP channel [Ca2+]i assay
# Type: cell-based
# APPLIED_CONDITIONS: vs icilin 0.25μM; read-out: TRPM8 IC50 for antagonism of icilin
MEASURED_QUANTITY: IC50

MOLECULE	MEASURED_QUANTITY	OBS_VALUE
CCCCCCC(C)(C)c1cc(OC)c([C@@H]2C=C(CO)[C@@H]3C[C@H]2C3(C)C)c(OC)c1 [HU308]	IC50	> 100 µM
